Form field: EC50 (one value per entry).
- SYSTEM_UNDER_TEST: human mGluR5d (Homo sapiens)
- Sequence (P41594 21-942 isoform P41594-3 limits assumed): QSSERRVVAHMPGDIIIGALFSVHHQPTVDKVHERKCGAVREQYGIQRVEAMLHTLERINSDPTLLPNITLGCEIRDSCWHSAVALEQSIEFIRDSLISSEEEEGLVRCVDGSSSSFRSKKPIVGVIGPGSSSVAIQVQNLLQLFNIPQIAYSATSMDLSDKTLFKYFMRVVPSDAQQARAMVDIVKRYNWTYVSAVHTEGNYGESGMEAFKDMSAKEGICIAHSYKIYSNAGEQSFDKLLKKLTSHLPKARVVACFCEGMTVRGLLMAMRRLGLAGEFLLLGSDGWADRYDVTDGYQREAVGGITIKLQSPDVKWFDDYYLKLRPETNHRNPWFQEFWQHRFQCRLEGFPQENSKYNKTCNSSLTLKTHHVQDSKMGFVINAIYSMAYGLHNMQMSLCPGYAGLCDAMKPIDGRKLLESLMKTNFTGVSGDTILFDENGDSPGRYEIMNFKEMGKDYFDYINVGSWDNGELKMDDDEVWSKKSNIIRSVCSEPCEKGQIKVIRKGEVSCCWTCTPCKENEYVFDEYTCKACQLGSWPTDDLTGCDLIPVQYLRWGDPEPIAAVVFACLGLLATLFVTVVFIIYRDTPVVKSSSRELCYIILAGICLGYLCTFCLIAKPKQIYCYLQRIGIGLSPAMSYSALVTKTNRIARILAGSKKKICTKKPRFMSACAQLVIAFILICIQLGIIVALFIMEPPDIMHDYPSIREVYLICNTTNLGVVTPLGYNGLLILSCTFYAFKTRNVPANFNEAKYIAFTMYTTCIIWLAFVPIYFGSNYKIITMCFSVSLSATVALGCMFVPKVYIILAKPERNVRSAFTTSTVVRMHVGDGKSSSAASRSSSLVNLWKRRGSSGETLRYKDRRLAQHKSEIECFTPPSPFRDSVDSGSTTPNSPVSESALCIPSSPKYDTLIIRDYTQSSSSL
- ASSAY_EXPLANATION: functional assays for mGluR5 potentiation: [Ca2+]i mobilization (FLIPR), secondary IP3 turnover assay
- ASSAY_SETUP: active in assays described herein; which assay (FLIPR or IP3) is not stated

# TEST_SMILES, SYSTEM_UNDER_TEST, OUTPUT_UNIT, EC50
records = [
    ("N#Cc1cccnc1N1CCN(C(=O)COCc2ccccc2)CC1", "human mGluR5d (Homo sapiens)", "nM", 5100),
    ("O=C(COCc1ccccc1)N1CCN(c2ccccc2)CC1", "human mGluR5d (Homo sapiens)", "nM", 600),
    ("O=C(COCc1ccc(F)cc1)N1CCN(c2ccc(F)cc2F)CC1", "human mGluR5d (Homo sapiens)", "nM", 400),
    ("C[C@@H]1CN(c2ccc(Cl)cc2Cl)CCN1C(=O)COCc1ccncc1", "human mGluR5d (Homo sapiens)", "nM", 2300),
]
